Reference source for all entries: ChEMBL document CHEMBL4513216

- experimental_protocol: Toxicity liver stage against HepG2, at 10uM
- Type: cell-based
- Design: test concentration 10 uM, cell line HepG2-A16-CD81EGFP
- conditions: human, HepG2-A16-CD81EGFP cells; read-out: INHIBITION

{"compound": "COc1cc(Oc2ncccc2C(F)(F)F)ccc1CN1CCCC1", "cytotoxicity at 10 µM / %": 38.8}
{"compound": "CN1C[C@H]2CNC[C@@]2(C(=O)N2CCN(c3ncccc3C#N)CC2)C1", "cytotoxicity at 10 µM / %": 2.12}
{"compound": "CCC(CN1CCOCC1)n1cncc1-c1ccc2c(c1)CCCN2C (configuration not stated)", "cytotoxicity at 10 µM / %": 8.9}
{"compound": "Cc1c[nH]c(C(=O)N2CCC(c3nnc(CN(C)CCO)n3C)CC2)c1", "cytotoxicity at 10 µM / %": -3.52}
{"compound": "COc1ccc(Cl)cc1C(=O)NCCNc1cnccn1", "cytotoxicity at 10 µM / %": -8.35}
{"compound": "CNC(=O)Cc1noc(-c2cc3c(s2)CCC(C)(C)C3)n1", "cytotoxicity at 10 µM / %": 3.57}
{"compound": "O=C(C1CCOC1)N1CCc2ncnc(NC3CCC3)c2CC1 (configuration not stated)", "cytotoxicity at 10 µM / %": -151}
{"compound": "CCC(=O)c1ccc(OCC(=O)N(C)C(C)c2ccon2)cc1 (configuration not stated)", "cytotoxicity at 10 µM / %": 1.71}
{"compound": "Cc1n[nH]c(C)c1C1COCCN1C(=O)Cc1ccccc1F (configuration not stated)", "cytotoxicity at 10 µM / %": -2.46}
{"compound": "CCc1nc(NCCc2c(C)nn(CC)c2C)c2cnn(C)c2n1", "cytotoxicity at 10 µM / %": 9.33}
{"compound": "Cc1nc2ccccc2n1Cc1cc(C(=O)N2C[C@@H](C)O[C@@H](C)C2)no1", "cytotoxicity at 10 µM / %": 25.7}
{"compound": "Cc1[nH]ccc1C(=O)N1CCC(c2nnc(Cn3ccnc3)n2C)CC1", "cytotoxicity at 10 µM / %": -9.61}
{"compound": "CCn1nnnc1-c1cccc(NC(N)=O)c1", "cytotoxicity at 10 µM / %": 8.92}
{"compound": "Cc1ccc(-n2c(COC(C)C)n[nH]c2=O)cc1", "cytotoxicity at 10 µM / %": 9.47}
{"compound": "OCCCNC1CCc2cc3c(cc21)OCCO3 (configuration not stated)", "cytotoxicity at 10 µM / %": -5.93}
{"compound": "CN(C(=O)Cc1ccccc1Cl)C1CCN(c2ccccn2)CC1", "cytotoxicity at 10 µM / %": -7.48}
{"compound": "CCCNC(=O)c1ccc(-c2ccco2)[nH]c1=O", "cytotoxicity at 10 µM / %": -5.68}
